# ASSAY INFO: Chemical stability assessed as half life of hydrolysis in 0.05 M citrate buffer at pH 4.6
# Format: physicochemical
OUTCOME MEASURE: t1/2

- SMI: "CCN(CC)/[N+]([O-])=N/O[C@@H]1O[C@H](CO)[C@@H](O)[C@H](O)[C@H]1O"
  OUTCOME MEASURE: "t1/2"
  REPORTED: "> 240 h"
- SMI: "CC(=O)N[C@H]1[C@H](O/N=[N+](\\[O-])N2CCCC2)O[C@H](CO)[C@@H](O)[C@@H]1O"
  OUTCOME MEASURE: "t1/2"
  REPORTED: "> 240 h"
- SMI: "CCN(CC)/[N+]([O-])=N/O[C@@H]1O[C@H](CO)[C@@H](O)[C@H](O)[C@H]1NC(C)=O"
  OUTCOME MEASURE: "t1/2"
  REPORTED: "17 h"
- SMI: "CCN(CC)/[N+]([O-])=N/O[C@@H]1O[C@@H](C)[C@@H](O)[C@@H](O)[C@@H]1O"
  OUTCOME MEASURE: "t1/2"
  REPORTED: "> 240 h"
